experimental_details: protein stability index of a GFP-peptide fusion (yeast GPS) (PSI 1-4); higher = more stable; sorted into four equal gates, so the index is relative within each strain
cond: ubr1∆
# if value of protein stability index reaches 3, tag True; if it stays below, tag False

[
  {
    "biopolymer_sequence": "AVKRGTCAVGVKGKNCV [PRE6]",
    "label_class": "False"
  },
  {
    "biopolymer_sequence": "ELLREWLETYSENRDKF [IRR1]",
    "label_class": "True"
  },
  {
    "biopolymer_sequence": "SMRVKPSASLKLHHDLK [YMR129W/POM152]",
    "label_class": "True"
  },
  {
    "biopolymer_sequence": "DVMDELITSSARKELPI [SIR3]",
    "label_class": "False"
  },
  {
    "biopolymer_sequence": "KENFILDSLMKTTRLLL [YJL039C/NUP192]",
    "label_class": "False"
  },
  {
    "biopolymer_sequence": "IHSLIPVAKWFVKFITY [SIN4]",
    "label_class": "False"
  },
  {
    "biopolymer_sequence": "PFETFDHASIRRGYQVY [CYT1]",
    "label_class": "False"
  },
  {
    "biopolymer_sequence": "LQELIVNGPNVHPGANY [RPO31]",
    "label_class": "False"
  },
  {
    "biopolymer_sequence": "KRYANHTQDIIGGMRVD [RET1]",
    "label_class": "True"
  },
  {
    "biopolymer_sequence": "LQQKQQQRFQALQQQQQ [SWI1]",
    "label_class": "False"
  }
]
